conditions: in ethanol, 288.15 K
OBSERVABLE: solubility (mole fraction)

Asked: Need solubility (mole fraction), item COc1c(N2CCNC(C)C2)c(F)cc2c(=O)c(C(=O)O)cn(C3CC3)c12 (stereo unspecified)
Given back: 0.000489

###

conditions: in methanol, 273.15 K
OBSERVABLE: solubility (mole fraction)
One number for each entry.

Asked: Need solubility (mole fraction), item COc1c(N2CCNC(C)C2)c(F)cc2c(=O)c(C(=O)O)cn(C3CC3)c12 (stereo unspecified)
Given back: 0.00019

###

conditions: in n-butanol, 273.15 K
OBSERVABLE: solubility (mole fraction)

Asked: Need solubility (mole fraction), item COc1c(N2CCNC(C)C2)c(F)cc2c(=O)c(C(=O)O)cn(C3CC3)c12 (stereo unspecified)
Given back: 0.00105

###

conditions: in acetonitrile, 278.15 K
OBSERVABLE: solubility (mole fraction)
Answers are plain numbers.

Asked: Need solubility (mole fraction), item COc1c(N2CCNC(C)C2)c(F)cc2c(=O)c(C(=O)O)cn(C3CC3)c12 (stereo unspecified)
Given back: 0.0015

###

details: in acetonitrile, 293.15 K
OBSERVABLE: solubility (mole fraction)

Asked: Need solubility (mole fraction), item COc1c(N2CCNC(C)C2)c(F)cc2c(=O)c(C(=O)O)cn(C3CC3)c12 (stereo unspecified)
Given back: 0.00244

###

conditions: in DMF, 288.15 K
OBSERVABLE: solubility (mole fraction)
Numbers only.

Asked: Need solubility (mole fraction), item COc1c(N2CCNC(C)C2)c(F)cc2c(=O)c(C(=O)O)cn(C3CC3)c12 (stereo unspecified)
Given back: 0.00417

###

settings: in 2-butanone, 288.15 K
OBSERVABLE: solubility (mole fraction)
Answers are plain numbers.

Asked: Need solubility (mole fraction), item COc1c(N2CCNC(C)C2)c(F)cc2c(=O)c(C(=O)O)cn(C3CC3)c12 (stereo unspecified)
Given back: 0.00257

###

details: in acetonitrile, 298.15 K
OBSERVABLE: solubility (mole fraction)
Numbers only.

Asked: Need solubility (mole fraction), item COc1c(N2CCNC(C)C2)c(F)cc2c(=O)c(C(=O)O)cn(C3CC3)c12 (stereo unspecified)
Given back: 0.00281

###

conditions: in ethanol, 278.15 K
OBSERVABLE: solubility (mole fraction)
Give bare numbers.

Asked: Need solubility (mole fraction), item COc1c(N2CCNC(C)C2)c(F)cc2c(=O)c(C(=O)O)cn(C3CC3)c12 (stereo unspecified)
Given back: 0.000326

###

conditions: in n-propanol, 313.15 K
OBSERVABLE: solubility (mole fraction)
One number for each entry.

Asked: Need solubility (mole fraction), item COc1c(N2CCNC(C)C2)c(F)cc2c(=O)c(C(=O)O)cn(C3CC3)c12 (stereo unspecified)
Given back: 0.00149

###

conditions: in acetone, 308.15 K
OBSERVABLE: solubility (mole fraction)

Asked: Need solubility (mole fraction), item COc1c(N2CCNC(C)C2)c(F)cc2c(=O)c(C(=O)O)cn(C3CC3)c12 (stereo unspecified)
Given back: 0.00235

###

settings: in methanol, 288.15 K
OBSERVABLE: solubility (mole fraction)
One number for each entry.

Asked: Need solubility (mole fraction), item COc1c(N2CCNC(C)C2)c(F)cc2c(=O)c(C(=O)O)cn(C3CC3)c12 (stereo unspecified)
Given back: 0.00036
